- TARGET: tetanus neurotoxin (TeNT), authentic tetanus holotoxin (Clostridium tetani, UniProt P04958 2-1315)
- Sequence (P04958 2-457 limits assumed, chain 1 of 2): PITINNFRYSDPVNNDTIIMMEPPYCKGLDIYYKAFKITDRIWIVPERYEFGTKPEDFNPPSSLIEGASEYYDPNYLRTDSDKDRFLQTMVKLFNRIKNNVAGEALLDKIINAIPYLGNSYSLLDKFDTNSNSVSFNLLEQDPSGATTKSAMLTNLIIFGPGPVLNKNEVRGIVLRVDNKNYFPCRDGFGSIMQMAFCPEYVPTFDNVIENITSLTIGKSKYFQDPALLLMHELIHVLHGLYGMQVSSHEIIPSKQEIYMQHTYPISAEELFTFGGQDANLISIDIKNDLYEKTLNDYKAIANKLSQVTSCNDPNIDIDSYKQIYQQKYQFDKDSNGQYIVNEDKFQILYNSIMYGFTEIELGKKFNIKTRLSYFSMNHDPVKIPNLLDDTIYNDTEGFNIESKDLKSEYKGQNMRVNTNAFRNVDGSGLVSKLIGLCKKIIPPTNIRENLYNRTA
- Sequence (P04958 458-1315 limits assumed, chain 2 of 2): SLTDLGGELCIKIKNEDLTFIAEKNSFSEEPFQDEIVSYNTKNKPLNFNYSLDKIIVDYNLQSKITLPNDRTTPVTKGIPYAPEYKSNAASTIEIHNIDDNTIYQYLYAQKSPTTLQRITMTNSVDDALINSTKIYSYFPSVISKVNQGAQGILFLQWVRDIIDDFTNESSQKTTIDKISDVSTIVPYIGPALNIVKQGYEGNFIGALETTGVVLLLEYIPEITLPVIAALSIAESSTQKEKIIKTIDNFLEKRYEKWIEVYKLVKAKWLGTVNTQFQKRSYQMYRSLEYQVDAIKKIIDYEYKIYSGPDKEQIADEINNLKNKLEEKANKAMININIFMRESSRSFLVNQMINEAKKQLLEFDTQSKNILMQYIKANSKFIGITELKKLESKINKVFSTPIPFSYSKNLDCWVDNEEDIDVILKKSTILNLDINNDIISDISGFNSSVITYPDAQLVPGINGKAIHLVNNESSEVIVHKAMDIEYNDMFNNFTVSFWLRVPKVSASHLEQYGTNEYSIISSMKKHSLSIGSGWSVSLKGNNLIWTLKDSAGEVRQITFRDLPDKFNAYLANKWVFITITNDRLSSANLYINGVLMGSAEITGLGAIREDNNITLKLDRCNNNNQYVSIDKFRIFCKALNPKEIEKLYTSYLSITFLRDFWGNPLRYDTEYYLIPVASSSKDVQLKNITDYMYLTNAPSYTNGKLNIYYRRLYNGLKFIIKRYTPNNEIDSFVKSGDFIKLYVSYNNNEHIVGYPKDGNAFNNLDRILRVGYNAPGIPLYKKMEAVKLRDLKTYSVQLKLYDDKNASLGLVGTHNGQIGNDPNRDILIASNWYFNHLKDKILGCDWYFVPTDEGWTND
- ASSAY PROCEDURE: ELISA, TeNT captured with cAb-TT2, unlabelled binder
MEASURED QUANTITY: maximal absorbance at 450 nm
Numbers only.

| BINDER | REPORTED RESULT |
| --- | --- |
| SVT13L (VHH) VHH: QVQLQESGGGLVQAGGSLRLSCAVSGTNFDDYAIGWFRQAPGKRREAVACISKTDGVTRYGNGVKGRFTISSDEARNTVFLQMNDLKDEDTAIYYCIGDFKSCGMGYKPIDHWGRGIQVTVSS | 0.487 |
| SVT03L (VHH) VHH: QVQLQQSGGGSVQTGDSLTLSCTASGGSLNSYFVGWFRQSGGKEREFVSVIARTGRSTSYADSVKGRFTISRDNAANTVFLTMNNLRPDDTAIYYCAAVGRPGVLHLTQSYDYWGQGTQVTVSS | 0.304 |
| SVT02L (VHH) VHH: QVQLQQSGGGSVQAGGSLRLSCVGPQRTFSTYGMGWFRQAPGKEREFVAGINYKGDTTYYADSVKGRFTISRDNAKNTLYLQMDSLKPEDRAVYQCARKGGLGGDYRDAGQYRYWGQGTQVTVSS | 0.196 |

List reported maximal absorbance at 450 nm for each of these binders:
1. SVT20L (VHH) VHH: QVQLQQSGGGLVQAGGSLRLSCAASGRTMSSYAMGWFRQAPGKQREFVAAISRSGGNTYYTDSVKGRFTISRDNAKNTLYLQMNSLKPEETAVYYCAADPNLMYESKWKYRALEAWGQGTLVTVSS
2. SVT15L-3FW4M (VHH) VHH: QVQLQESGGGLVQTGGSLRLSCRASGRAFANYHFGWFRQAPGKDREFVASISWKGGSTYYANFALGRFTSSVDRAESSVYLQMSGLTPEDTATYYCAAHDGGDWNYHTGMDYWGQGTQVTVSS
3. SVT22L (VHH) VHH: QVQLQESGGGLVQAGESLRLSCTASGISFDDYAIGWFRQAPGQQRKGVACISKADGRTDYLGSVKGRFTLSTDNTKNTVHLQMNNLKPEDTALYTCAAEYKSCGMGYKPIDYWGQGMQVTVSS

*A*
1. 0.327
2. 0.195
3. 0.318

meta.source: patent US20240376185A1
